# ASSAY_INFO: Further oral pharmacokinetic study in female Balb/c mice, 5, 10 and 20 mg/kg
# CONDITIONS: mouse, plasma, 20 mg/kg, Cmax, Median, 20 mg/kg single oral dose
ASSAY_ENDPOINT: Cmax (ng/mL)
I only need the number, in ng/mL, no unit after it.

Quick check: Cmax of CC[C@H]1OC(=O)[C@@](C)(F)C(=O)[C@H](C)[C@@H](O[C@@H]2O[C@H](C)C[C@H](N(C)C)[C@H]2O)[C@](C)(OC)C[C@@H](C)C(=O)[C@H](C)[C@H]2N(CCCCn3cc(-c4cccc(N)c4)nn3)C(=O)O[C@]12C [Form II, solithromycin] ?
5660

====

# CONDITIONS: female, Balb/c, mouse, in vivo, po, 20 mg/kg
ASSAY_ENDPOINT: t½ (h)
I only need the number, in h, no unit after it.

Quick check: t½ of CC[C@H]1OC(=O)[C@@](C)(F)C(=O)[C@H](C)[C@@H](O[C@@H]2O[C@H](C)C[C@H](N(C)C)[C@H]2O)[C@](C)(OC)C[C@@H](C)C(=O)[C@H](C)[C@H]2N(CCCCn3cc(-c4cccc(N)c4)nn3)C(=O)O[C@]12C [Form I, solithromycin] ?
2.1

====

# ASSAY_INFO: Stability of Form I and Form II under various storage conditions
# Type: physicochemical
# CONDITIONS: 2-8° C.; 12 Month
ASSAY_ENDPOINT: Assay (on hydrous basis)
Give the figure together with its unit, number first.

Quick check: Assay (on hydrous basis) of CC[C@H]1OC(=O)[C@@](C)(F)C(=O)[C@H](C)[C@@H](O[C@@H]2O[C@H](C)C[C@H](N(C)C)[C@H]2O)[C@](C)(OC)C[C@@H](C)C(=O)[C@H](C)[C@H]2N(CCCCn3cc(-c4cccc(N)c4)nn3)C(=O)O[C@]12C [Form II, solithromycin] ?
93%

Quick check: Assay (on hydrous basis) of CC[C@H]1OC(=O)[C@@](C)(F)C(=O)[C@H](C)[C@@H](O[C@@H]2O[C@H](C)C[C@H](N(C)C)[C@H]2O)[C@](C)(OC)C[C@@H](C)C(=O)[C@H](C)[C@H]2N(CCCCn3cc(-c4cccc(N)c4)nn3)C(=O)O[C@]12C [Form I (Lot 4)] ?
98.2%

Quick check: Assay (on hydrous basis) of CC[C@H]1OC(=O)[C@@](C)(F)C(=O)[C@H](C)[C@@H](O[C@@H]2O[C@H](C)C[C@H](N(C)C)[C@H]2O)[C@](C)(OC)C[C@@H](C)C(=O)[C@H](C)[C@H]2N(CCCCn3cc(-c4cccc(N)c4)nn3)C(=O)O[C@]12C [Form I (Lot 3)] ?
98.7%

====

# ASSAY_INFO: Stability of Form I and Form II under various storage conditions
# Type: physicochemical
# CONDITIONS: 2-8° C.; 6 Month
ASSAY_ENDPOINT: Assay (on hydrous basis)

Quick check: Assay (on hydrous basis) of CC[C@H]1OC(=O)[C@@](C)(F)C(=O)[C@H](C)[C@@H](O[C@@H]2O[C@H](C)C[C@H](N(C)C)[C@H]2O)[C@](C)(OC)C[C@@H](C)C(=O)[C@H](C)[C@H]2N(CCCCn3cc(-c4cccc(N)c4)nn3)C(=O)O[C@]12C [Form II, solithromycin] ?
93.6%

Quick check: Assay (on hydrous basis) of CC[C@H]1OC(=O)[C@@](C)(F)C(=O)[C@H](C)[C@@H](O[C@@H]2O[C@H](C)C[C@H](N(C)C)[C@H]2O)[C@](C)(OC)C[C@@H](C)C(=O)[C@H](C)[C@H]2N(CCCCn3cc(-c4cccc(N)c4)nn3)C(=O)O[C@]12C [Form I (Lot 4)] ?
98.3%

Quick check: Assay (on hydrous basis) of CC[C@H]1OC(=O)[C@@](C)(F)C(=O)[C@H](C)[C@@H](O[C@@H]2O[C@H](C)C[C@H](N(C)C)[C@H]2O)[C@](C)(OC)C[C@@H](C)C(=O)[C@H](C)[C@H]2N(CCCCn3cc(-c4cccc(N)c4)nn3)C(=O)O[C@]12C [Form I (Lot 3)] ?
98.8%
